# assay-explanation: Solubility of the compound in trifluoroacetic acid
# Type: physicochemical
measurement-kind: solubility

>>> value("O=C1NC(=O)C(C(=O)NNC(=O)Nc2ccccc2)C(=O)N1")
"Soluble"
>>> value("CN1C(=O)NC(=O)C(C(=O)NNC(=O)Nc2ccc(Cl)cc2)C1=O (stereo not given)")
"Insoluble"
>>> value("O=C1NC(=O)C(C(=O)NNC(=O)Nc2ccc([N+](=O)[O-])cc2)C(=O)N1")
"Soluble"
>>> value("O=C(NNC(=O)C1C(=O)NC(=O)N(c2ccccc2)C1=O)Nc1ccc(Cl)c(Cl)c1 (stereo not given)")
"Insoluble"
>>> value("CN1C(=O)C(C(=O)NNC(=O)Nc2ccc(O)c([N+](=O)[O-])c2)C(=O)N(C)C1=O")
"Insoluble"

###

# assay-explanation: Solubility of the compound in CHCl3/TFA
# Format: physicochemical
measurement-kind: solubility

>>> value("O=C1NC(=O)C(C(=O)NNC(=O)Nc2ccc(F)cc2)C(=O)N1")
"Soluble"
>>> value("CN1C(=O)C(C(=O)NNC(=O)Nc2ccccc2)C(=O)N(C)C1=O")
"Insoluble"
>>> value("O=C(NNC(=O)C1C(=O)NC(=O)N(c2ccccc2)C1=O)Nc1ccccc1 (stereo unspecified)")
"Insoluble"
>>> value("O=C1NC(=O)C(C(=O)NNC(=O)Nc2ccc(O)c([N+](=O)[O-])c2)C(=O)N1")
"Soluble"
>>> value("N#Cc1ccc(NC(=O)NNC(=O)C2C(=O)NC(=O)NC2=O)cc1")
"Soluble"
>>> value("CN1C(=O)NC(=O)C(C(=O)NNC(=O)Nc2ccc(C#N)cc2)C1=O (stereo unspecified)")
"Insoluble"
>>> value("O=C(NNC(=O)C1C(=O)NC(=O)N(c2ccccc2)C1=O)Nc1ccc([N+](=O)[O-])cc1 (stereo unspecified)")
"Insoluble"
>>> value("O=C(NNC(=O)C1C(=O)NC(=O)N(c2ccccc2)C1=O)Nc1ccc(Cl)c(Cl)c1 (stereo unspecified)")
"Insoluble"
>>> value("CN1C(=O)C(C(=O)NNC(=O)Nc2ccc(C#N)cc2)C(=O)N(C)C1=O")
"Insoluble"
>>> value("O=C1NC(=O)C(C(=O)NNC(=O)Nc2ccc(Cl)cc2)C(=O)N1")
"Soluble"
>>> value("O=C(NNC(=O)C1C(=O)NC(=O)N(c2ccccc2)C1=O)Nc1ccc(O)cc1 (stereo unspecified)")
"Insoluble"
>>> value("CN1C(=O)C(C(=O)NNC(=O)Nc2ccc(Cl)c(Cl)c2)C(=O)N(C)C1=O")
"Insoluble"
>>> value("CN1C(=O)NC(=O)C(C(=O)NNC(=O)Nc2ccc([N+](=O)[O-])cc2)C1=O (stereo unspecified)")
"Insoluble"
>>> value("N#Cc1ccc(NC(=O)NNC(=O)C2C(=O)NC(=O)N(c3ccccc3)C2=O)cc1 (stereo unspecified)")
"Insoluble"
>>> value("CN1C(=O)NC(=O)C(C(=O)NNC(=O)Nc2ccc(Cl)cc2)C1=O (stereo unspecified)")
"Insoluble"
>>> value("CN1C(=O)NC(=O)C(C(=O)NNC(=O)Nc2ccc(O)cc2)C1=O (stereo unspecified)")
"Insoluble"
>>> value("O=C(NNC(=O)C1C(=O)NC(=O)N(c2ccccc2)C1=O)Nc1ccc(F)cc1 (stereo unspecified)")
"Insoluble"
>>> value("O=C1NC(=O)C(C(=O)NNC(=O)Nc2ccc(O)cc2)C(=O)N1")
"Soluble"
>>> value("CN1C(=O)NC(=O)C(C(=O)NNC(=O)Nc2ccc(F)cc2)C1=O (stereo unspecified)")
"Insoluble"
>>> value("CN1C(=O)C(C(=O)NNC(=O)Nc2ccc(F)cc2)C(=O)N(C)C1=O")
"Insoluble"
>>> value("CN1C(=O)C(C(=O)NNC(=O)Nc2ccc(O)cc2)C(=O)N(C)C1=O")
"Insoluble"

###

# assay-explanation: Solubility of the compound in isopropanol
# Type: physicochemical
measurement-kind: solubility

>>> value("O=C1NC(=O)C(C(=O)Nc2ccc(Br)cc2)C(=O)N1")
"Insoluble"
>>> value("O=C1NC(=O)C(C(=O)NNC(=O)Nc2ccc(Cl)cc2)C(=O)N1")
"Insoluble"
>>> value("O=C1NC(=O)C(C(=O)Nc2ccc(Cl)c(Cl)c2)C(=O)N1")
"Insoluble"
>>> value("O=C1NC(=O)C(C(=O)NNC(=O)Nc2cccc(O)c2)C(=O)N1")
"Insoluble"
>>> value("O=C1NC(=O)C(C(=O)NNC(=O)Nc2ccc([N+](=O)[O-])cc2)C(=O)N1")
"Insoluble"
>>> value("O=C1NC(=O)C(C(=O)Nc2cccc([N+](=O)[O-])c2)C(=O)N1")
"Insoluble"
>>> value("CN1C(=O)C(C(=O)NNC(=O)Nc2ccc(Cl)c(Cl)c2)C(=O)N(C)C1=O")
"Insoluble"
>>> value("CN1C(=O)NC(=O)C(C(=O)NNC(=O)Nc2cccc(O)c2)C1=O (stereo not given)")
"Insoluble"
>>> value("Cc1ccc(NC(=O)C2C(=O)NC(=O)NC2=O)cc1C")
"Insoluble"
>>> value("CN1C(=O)NC(=O)C(C(=O)NNC(=O)Nc2ccc(Cl)cc2)C1=O (stereo not given)")
"Insoluble"

###

# assay-explanation: Solubility of the compound in DMSO/TFA
# Assay type: physicochemical
measurement-kind: solubility

>>> value("CN1C(=O)C(C(=O)NNC(=O)Nc2ccc(O)cc2)C(=O)N(C)C1=O")
"Insoluble"
>>> value("CN1C(=O)NC(=O)C(C(=O)NNC(=O)Nc2ccc(C#N)cc2)C1=O (stereo unspecified)")
"Insoluble"
>>> value("CN1C(=O)C(C(=O)NNC(=O)Nc2ccc(O)c([N+](=O)[O-])c2)C(=O)N(C)C1=O")
"Insoluble"
>>> value("O=C1NC(=O)C(C(=O)NNC(=O)Nc2ccc(O)cc2)C(=O)N1")
"Soluble"
>>> value("CN1C(=O)NC(=O)C(C(=O)NNC(=O)Nc2cccc(O)c2)C1=O (stereo unspecified)")
"Insoluble"
>>> value("CN1C(=O)NC(=O)C(C(=O)NNC(=O)Nc2ccc(F)cc2)C1=O (stereo unspecified)")
"Insoluble"
>>> value("CN1C(=O)C(C(=O)NNC(=O)Nc2ccccc2)C(=O)N(C)C1=O")
"Insoluble"
>>> value("CN1C(=O)NC(=O)C(C(=O)NNC(=O)Nc2ccc(Cl)cc2)C1=O (stereo unspecified)")
"Insoluble"
>>> value("O=C(NNC(=O)C1C(=O)NC(=O)N(c2ccccc2)C1=O)Nc1ccc([N+](=O)[O-])cc1 (stereo unspecified)")
"Insoluble"
>>> value("O=C(NNC(=O)C1C(=O)NC(=O)N(c2ccccc2)C1=O)Nc1ccccc1 (stereo unspecified)")
"Insoluble"
>>> value("N#Cc1ccc(NC(=O)NNC(=O)C2C(=O)NC(=O)NC2=O)cc1")
"Soluble"
>>> value("CN1C(=O)NC(=O)C(C(=O)NNC(=O)Nc2ccc(Cl)c(Cl)c2)C1=O (stereo unspecified)")
"Insoluble"
>>> value("CN1C(=O)C(C(=O)NNC(=O)Nc2ccc([N+](=O)[O-])cc2)C(=O)N(C)C1=O")
"Insoluble"
>>> value("CN1C(=O)C(C(=O)NNC(=O)Nc2ccc(Cl)c(Cl)c2)C(=O)N(C)C1=O")
"Insoluble"
>>> value("O=C(NNC(=O)C1C(=O)NC(=O)N(c2ccccc2)C1=O)Nc1ccc(O)cc1 (stereo unspecified)")
"Insoluble"
>>> value("O=C1NC(=O)C(C(=O)NNC(=O)Nc2ccc(Cl)c(Cl)c2)C(=O)N1")
"Soluble"
>>> value("CN1C(=O)C(C(=O)NNC(=O)Nc2ccc(C#N)cc2)C(=O)N(C)C1=O")
"Insoluble"
>>> value("O=C(NNC(=O)C1C(=O)NC(=O)N(c2ccccc2)C1=O)Nc1ccc(F)cc1 (stereo unspecified)")
"Insoluble"
>>> value("O=C1NC(=O)C(C(=O)NNC(=O)Nc2ccc(F)cc2)C(=O)N1")
"Soluble"
>>> value("CN1C(=O)C(C(=O)NNC(=O)Nc2cccc(O)c2)C(=O)N(C)C1=O")
"Insoluble"
>>> value("CN1C(=O)C(C(=O)NNC(=O)Nc2ccc(F)cc2)C(=O)N(C)C1=O")
"Insoluble"

###

# assay-explanation: Solubility of the compound in water
# Assay type: physicochemical
measurement-kind: solubility

>>> value("CN1C(=O)C(C(=O)NNC(=O)Nc2ccc(Cl)c(Cl)c2)C(=O)N(C)C1=O")
"500 µg/mL"
>>> value("CN1C(=O)C(C(=O)Nc2ccc(Cl)cc2)C(=O)N(C)C1=O")
"130 µg/mL"
>>> value("CN1C(=O)C(C(=O)Nc2ccccc2)C(=O)N(C)C1=O")
"140 µg/mL"
>>> value("CN1C(=O)NC(=O)C(C(=O)NNC(=O)Nc2ccc(O)cc2)C1=O (centres undefined)")
"70 µg/mL"

###

# assay-explanation: 1-Octanol-water distribution coefficient, log P of compound
# Format: physicochemical
# key: entry, value: logP
measurement-kind: logP

>>> value("CN1C(=O)C(C(=O)NNC(=O)Nc2ccc(Cl)c(Cl)c2)C(=O)N(C)C1=O")
0.73
>>> value("CN1C(=O)C(C(=O)Nc2ccccc2)C(=O)N(C)C1=O")
0.4
>>> value("CN1C(=O)C(C(=O)Nc2ccc(Cl)cc2)C(=O)N(C)C1=O")
1.18
>>> value("CN1C(=O)NC(=O)C(C(=O)NNC(=O)Nc2ccc(O)cc2)C1=O (centres undefined)")
1.08

Numbers sourced from ChEMBL document CHEMBL3862023.
